// data source = ChEMBL document CHEMBL6177920

# Test system: HCT-15
# TEST: Induction of apoptosis in human HCT-15 cells assessed as decrease in caspase 3 activity
# Format: functional, cell-based
RECORDED_ENDPOINT: pIC50
pIC50 is defined as minus the log10 of a concentration measured in mol/L.

Q: Please tell me: pIC50 of O=c1[nH]cc(F)c(=O)[nH]1 , system HCT-15?
Ans: 3.37

Q: Moving on to CCOc1ccc([C@@H]2C3CSCN3[C@]3(C(=O)Nc4ccccc43)[C@H]2C(=O)c2ccc(C)cc2)cc1OC (some centres not stated)
Ans: 3.44
